Target: rat mGlu5 (Rattus norvegicus (Rat), UniProt P31424)
Sequence (P31424 21-1203): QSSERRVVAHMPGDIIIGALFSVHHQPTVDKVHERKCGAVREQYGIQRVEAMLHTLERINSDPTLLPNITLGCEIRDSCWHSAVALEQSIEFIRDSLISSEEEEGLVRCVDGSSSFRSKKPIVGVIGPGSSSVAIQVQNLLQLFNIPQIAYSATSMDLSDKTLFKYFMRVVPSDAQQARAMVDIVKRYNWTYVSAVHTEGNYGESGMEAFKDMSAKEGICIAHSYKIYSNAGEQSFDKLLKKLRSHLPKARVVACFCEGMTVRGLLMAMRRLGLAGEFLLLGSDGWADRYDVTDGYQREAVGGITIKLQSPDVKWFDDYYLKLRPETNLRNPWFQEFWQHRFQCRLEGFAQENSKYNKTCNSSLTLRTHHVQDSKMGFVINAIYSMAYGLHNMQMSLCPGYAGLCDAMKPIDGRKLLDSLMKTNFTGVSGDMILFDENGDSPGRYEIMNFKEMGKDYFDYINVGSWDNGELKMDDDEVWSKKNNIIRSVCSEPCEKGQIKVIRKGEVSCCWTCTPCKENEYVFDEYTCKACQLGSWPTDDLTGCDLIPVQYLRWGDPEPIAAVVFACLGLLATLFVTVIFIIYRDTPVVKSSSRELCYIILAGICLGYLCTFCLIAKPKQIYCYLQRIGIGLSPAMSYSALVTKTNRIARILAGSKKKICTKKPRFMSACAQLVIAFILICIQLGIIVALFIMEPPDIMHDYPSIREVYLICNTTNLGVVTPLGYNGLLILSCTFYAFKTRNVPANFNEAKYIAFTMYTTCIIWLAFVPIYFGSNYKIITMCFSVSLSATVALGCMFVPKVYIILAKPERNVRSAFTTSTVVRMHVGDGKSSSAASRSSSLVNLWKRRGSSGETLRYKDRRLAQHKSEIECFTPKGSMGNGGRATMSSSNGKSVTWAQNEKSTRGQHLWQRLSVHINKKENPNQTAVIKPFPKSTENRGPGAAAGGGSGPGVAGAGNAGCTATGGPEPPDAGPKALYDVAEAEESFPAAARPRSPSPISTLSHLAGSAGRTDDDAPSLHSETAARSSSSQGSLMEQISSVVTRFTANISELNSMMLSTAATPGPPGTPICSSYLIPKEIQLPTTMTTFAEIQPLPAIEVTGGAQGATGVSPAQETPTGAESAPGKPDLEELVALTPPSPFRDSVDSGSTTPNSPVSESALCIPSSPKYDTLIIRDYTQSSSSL
Experiment: mGlu5 Ca2+ flux assay
Format: cell-based
Settings: read-out: rat mGlu5 EC50 or IC50
pEC50: −log10 of the molar value.
# pEC50 listing for each entry below

C[C@H]1CN(c2ccc(F)cc2)C(=O)c2cc(CNc3ccc(Cl)cc3)nn21 = 5.21
O=C1c2cc(CNc3ccc(OC(F)F)cc3F)nn2CCN1c1ccccn1 = < 4.52
C[C@H]1CN(c2ccc(F)cc2)C(=O)c2cc(CNc3ccc(F)c(F)c3)nn21 = < 5.00

[Q] I'm curious: which pEC50 was measured for `O=C1c2cc(CNc3cccc(F)c3F)nn2CCN1c1ccc(F)cc1` tested on rat mGlu5 (Rattus norvegicus (Rat), UniProt P31424)?
[A] 5.62

[Q] Recall the recorded pEC50 for `COc1ccc(N(C)Cc2cc3n(n2)CCN(c2cccc(F)c2F)C3=O)cc1` with rat mGlu5 (Rattus norvegicus (Rat), UniProt P31424) and state it.
[A] < 4.52

[Q] Please tell me: pEC50 of `CN(Cc1cc2n(n1)CCN(c1ccc(F)cc1)C2=O)c1cccc(Cl)c1` , system rat mGlu5 (Rattus norvegicus (Rat), UniProt P31424)?
[A] < 5.00

[Q] Field: pEC50 (rat mGlu5 (Rattus norvegicus (Rat), UniProt P31424)). Entry: `COc1ccc(N(C)Cc2cc3n(n2)CCN(c2c(F)cc(F)cc2F)C3=O)cc1`
[A] < 4.52

[Q] Under rat mGlu5 (Rattus norvegicus (Rat), UniProt P31424): pEC50 value of `O=C1c2cc(CNc3c(F)cccc3F)nn2CCN1c1ccc(F)cc1` ?
[A] 5.05

[Q] Write down the reported pEC50 of CC(Nc1ccc(F)cc1)c1cc2n(n1)CCN(c1ccc(F)cc1)C2=O (stereo not drawn) , test system: rat mGlu5 (Rattus norvegicus (Rat), UniProt P31424).
[A] < 4.52

###

Biological target: rat mGlu5 (Rattus norvegicus (Rat), UniProt P31424)
Experiment: mGlu5 Ca2+ flux assay
Type: cell-based
Conditions: read-out: rat mGlu5 EC50 or IC50
pEC50: −log10 of the molar value.
QUANTITY_NAME: pEC50

The following compounds have reported results that may help.
Cc1ccccc1NCc1cc2n(n1)[C@@H](C)CN(c1ccc(F)cc1)C2=O [Compound 45] = < 5.00
Cc1nc(N2CCn3nc(CNc4ccc(OC(F)F)cc4F)cc3C2=O)cs1 [Compound 140] = < 4.52
COc1ccc(N(C)Cc2cc3n(n2)CCN(c2ccc(OC(F)F)cc2)C3=O)cc1 [Compound 123] = < 4.52
CCc1ccc(NCc2cc3n(n2)CCN(c2ccc(F)cc2)C3=O)cc1 [Compound 22] = < 4.52

[Q] Request body: readout pEC50, system rat mGlu5 (Rattus norvegicus (Rat), UniProt P31424), query C[C@@H]1CN(c2ccc(F)cc2)C(=O)c2cc(CNc3c(F)cc(F)cc3F)nn21 [Compound 79] . Return the value.
[A] < 5.00

[Q] # returns recorded pEC50 (system: rat mGlu5 (Rattus norvegicus (Rat), UniProt P31424)) for COc1ccc(N(C)Cc2cc3n(n2)CCN(c2c(F)cccc2F)C3=O)cc1 [Compound 110]
[A] < 4.52

[Q] Form field: pEC50 recorded for O=C1c2cc(CNc3cccc(OC(F)F)c3)nn2CCN1c1ccc(F)cc1 [Compound 12] with rat mGlu5 (Rattus norvegicus (Rat), UniProt P31424) (enter value)
[A] 5.13

[Q] API: value(readout= pEC50, system= rat mGlu5 (Rattus norvegicus (Rat), UniProt P31424), query= O=C1c2cc(CNc3ccc(OC(F)F)cc3F)nn2CCN1c1ccccc1F [Compound 153] )
[A] < 4.52

###

Target: UniProtKB P31424
Assay: mGlu5 Ca2+ flux assay
Format: cell-based
Settings: ratio of rat mGlu5 EC50 or IC50 to rat mGlu3 IC50
Below is a list of entries, each paired with its recorded Fold selectivity (mGlu3 vs. mGlu5) value.

N#CCc1ccc(NCc2cc3n(n2)CCN(c2ccc(F)cc2)C3=O)cc1 = >33
C[C@@H]1CN(c2ccc(F)cc2)C(=O)c2cc(CNc3ccccc3F)nn21 = >11

[Q] Quick one: Fold selectivity (mGlu3 vs. mGlu5) of `COc1ccc(N(C)Cc2cc3n(n2)CCN(c2ccc(F)c(F)c2)C3=O)cc1` ?
[A] >27

[Q] Which Fold selectivity (mGlu3 vs. mGlu5) value belongs to `COc1ccc(N(C)Cc2cc3n(n2)CCN(c2cc(F)ccc2Cl)C3=O)cc1` ?
[A] >14

[Q] Record request: Fold selectivity (mGlu3 vs. mGlu5) value, item `O=C1c2cc(CNc3ccccc3F)nn2CCN1c1ccc(F)cc1`
[A] 2.62

[Q] Please give the measured Fold selectivity (mGlu3 vs. mGlu5) for this molecule: `Cc1cccc(NCc2cc3n(n2)[C@@H](C)CN(c2ccc(F)cc2)C3=O)c1`
[A] 2.53

[Q] Need Fold selectivity (mGlu3 vs. mGlu5) of `COc1ccc(N(C)Cc2cc3n(n2)CCN(c2cc(Cl)ccc2F)C3=O)cc1` , thanks.
[A] >7.9

[Q] Would you mind telling me what Fold selectivity (mGlu3 vs. mGlu5) value was observed for `Cc1cccc(NCc2cc3n(n2)CCN(c2ccc(F)cc2)C3=O)n1` ?
[A] >9.3

[Q] Consider the molecule `COc1ccc(N(C)Cc2cc3n(n2)CCN(c2ccc(C#N)cc2)C3=O)cc1` and give its measured Fold selectivity (mGlu3 vs. mGlu5).
[A] >15

[Q] I have this molecule here, `Cc1nc(N2CCn3nc(CNc4ccc(OC(F)F)cc4F)cc3C2=O)cs1` , and I need its recorded Fold selectivity (mGlu3 vs. mGlu5).
[A] >48

[Q] Tell me the measured Fold selectivity (mGlu3 vs. mGlu5) of `C[C@H]1CN(c2ccc(F)cc2)C(=O)c2cc(CNc3ccccc3)nn21` , please.
[A] 0.17

[Q] For the molecule shown here, `COc1ccc(N(C)Cc2cc3n(n2)CCN(c2ccccc2C)C3=O)cc1` , give the reported Fold selectivity (mGlu3 vs. mGlu5).
[A] >15

[Q] Form field: reported Fold selectivity (mGlu3 vs. mGlu5) of `O=C1c2cc(CNc3ccc(Cl)cc3F)nn2CCN1c1ccc(F)cc1`
[A] >35

[Q] Quick check: Fold selectivity (mGlu3 vs. mGlu5) of `Cc1ccc(NCc2cc3n(n2)CCN(c2ccc(F)cc2)C3=O)cc1` ?
[A] >19

[Q] Look at this molecule and give its reported Fold selectivity (mGlu3 vs. mGlu5). `COc1ccc(N(C)Cc2cc3n(n2)CCN(c2ccc(Cl)cc2)C3=O)cc1`
[A] >51

[Q] What does the record list as Fold selectivity (mGlu3 vs. mGlu5) for `CN(Cc1cc2n(n1)CCN(c1ccc(F)cc1)C2=O)c1cccc(F)c1` ?
[A] 13.06

[Q] Consider the molecule shown here: `C[C@H]1CN(c2ccc(F)cc2)C(=O)c2cc(CNc3ccc(Cl)cc3)nn21` What is its recorded Fold selectivity (mGlu3 vs. mGlu5)?
[A] 4.69

[Q] Quick one: Fold selectivity (mGlu3 vs. mGlu5) for `Cc1ccccc1NCc1cc2n(n1)[C@H](C)CN(c1ccc(F)cc1)C2=O` ?
[A] >3.7

###

Target: UniProtKB P31422
Sequence (P31422 23-879): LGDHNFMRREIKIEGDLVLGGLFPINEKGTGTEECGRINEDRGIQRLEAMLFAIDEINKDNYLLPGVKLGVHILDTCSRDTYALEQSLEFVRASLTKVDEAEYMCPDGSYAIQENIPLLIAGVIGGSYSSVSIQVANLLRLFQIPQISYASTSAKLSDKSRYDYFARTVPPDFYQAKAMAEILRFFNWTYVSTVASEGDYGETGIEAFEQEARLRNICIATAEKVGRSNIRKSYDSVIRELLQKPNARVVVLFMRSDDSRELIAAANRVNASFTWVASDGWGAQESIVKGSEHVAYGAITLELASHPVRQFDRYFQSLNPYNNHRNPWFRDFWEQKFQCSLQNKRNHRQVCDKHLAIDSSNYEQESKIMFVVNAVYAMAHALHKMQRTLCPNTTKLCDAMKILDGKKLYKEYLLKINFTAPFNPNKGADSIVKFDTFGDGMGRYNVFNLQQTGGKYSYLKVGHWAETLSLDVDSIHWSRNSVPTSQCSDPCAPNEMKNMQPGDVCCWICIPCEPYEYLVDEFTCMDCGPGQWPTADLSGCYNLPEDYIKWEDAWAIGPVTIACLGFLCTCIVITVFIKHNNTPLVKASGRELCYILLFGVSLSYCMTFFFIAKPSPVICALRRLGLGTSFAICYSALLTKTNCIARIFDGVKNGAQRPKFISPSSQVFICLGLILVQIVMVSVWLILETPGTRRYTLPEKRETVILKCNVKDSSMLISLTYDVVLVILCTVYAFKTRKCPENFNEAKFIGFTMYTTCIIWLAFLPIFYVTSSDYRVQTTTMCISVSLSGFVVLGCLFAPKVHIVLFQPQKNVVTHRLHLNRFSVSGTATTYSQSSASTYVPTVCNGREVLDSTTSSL
Experiment: mGlu3 Ca2+ flux assay
Assay type: cell-based
Settings: amplitude of response at 30 μM test compound as % of maximal response to glutamate; read-out: rat mGlu3 Glu max (%)
# remaining activity at 30 µM per record follows
Entry format: amount then unit.

COc1ccc(N(C)Cc2cc3n(n2)CCN(c2ccc(Cl)c(F)c2)C3=O)cc1 = 2.43%
C[C@H]1CN(c2ccc(F)cc2)C(=O)c2cc(CNc3cccc(Cl)c3)nn21 = -0.54%
O=C1c2cc(CNc3ccc(OC(F)F)cc3F)nn2CCN1c1ccc(F)cn1 = 2.03%
CN(Cc1cc2n(n1)CCN(c1ccc(F)cc1)C2=O)c1cccc(Cl)c1 = 0.71%
O=C1c2cc(CNc3ccc(F)cc3)nn2CCN1c1ccc(F)cc1 = 2.22%
O=C1c2cc(CNc3ccc(OC(F)F)c(F)c3)nn2CCN1c1ccc(F)cc1 = 2.28%
CN(Cc1cc2n(n1)CCN(c1ccc(F)cc1)C2=O)c1ccc(Cl)cc1 = 1.4%
CC(Nc1ccccc1)c1cc2n(n1)CCN(c1ccc(F)cc1)C2=O (stereo not drawn) = 0.67%
CN(Cc1cc2n(n1)CCN(c1ccc(F)cc1)C2=O)c1cc(F)cc(F)c1 = 1.58%
C[C@@H]1CN(c2ccc(F)cc2)C(=O)c2cc(CNc3ccc(F)cc3F)nn21 = 2.66%

[Q] So what does the record say about remaining activity at 30 µM for `Cc1cccnc1NCc1cc2n(n1)CCN(c1ccc(F)cc1)C2=O` ?
[A] 0.18%

[Q] Entry `CN(Cc1cc2n(n1)CCN(c1ccc(F)cc1)C2=O)c1ccc(C#N)cc1` : reported remaining activity at 30 µM = ?
[A] 1.47%

[Q] # input compound: `COc1ccc(N(C)Cc2cc3n(n2)CCN(c2cc(F)cc(Cl)c2)C3=O)cc1` ; wanted: its remaining activity at 30 µM
[A] 1.95%

[Q] For `O=C1c2cc(CNc3ccc(OC(F)F)cc3F)nn2CCN1c1ccccn1` , what is its reported remaining activity at 30 µM?
[A] 1.14%

[Q] Any idea what remaining activity at 30 µM was measured for `COc1ccc(N(C)Cc2cc3n(n2)CCN(c2cc(Cl)ccc2F)C3=O)cc1` ?
[A] 2.32%
